Molecular target: T1, integrin αvβ6 (human, UniProt P06756)
T1 chain 1: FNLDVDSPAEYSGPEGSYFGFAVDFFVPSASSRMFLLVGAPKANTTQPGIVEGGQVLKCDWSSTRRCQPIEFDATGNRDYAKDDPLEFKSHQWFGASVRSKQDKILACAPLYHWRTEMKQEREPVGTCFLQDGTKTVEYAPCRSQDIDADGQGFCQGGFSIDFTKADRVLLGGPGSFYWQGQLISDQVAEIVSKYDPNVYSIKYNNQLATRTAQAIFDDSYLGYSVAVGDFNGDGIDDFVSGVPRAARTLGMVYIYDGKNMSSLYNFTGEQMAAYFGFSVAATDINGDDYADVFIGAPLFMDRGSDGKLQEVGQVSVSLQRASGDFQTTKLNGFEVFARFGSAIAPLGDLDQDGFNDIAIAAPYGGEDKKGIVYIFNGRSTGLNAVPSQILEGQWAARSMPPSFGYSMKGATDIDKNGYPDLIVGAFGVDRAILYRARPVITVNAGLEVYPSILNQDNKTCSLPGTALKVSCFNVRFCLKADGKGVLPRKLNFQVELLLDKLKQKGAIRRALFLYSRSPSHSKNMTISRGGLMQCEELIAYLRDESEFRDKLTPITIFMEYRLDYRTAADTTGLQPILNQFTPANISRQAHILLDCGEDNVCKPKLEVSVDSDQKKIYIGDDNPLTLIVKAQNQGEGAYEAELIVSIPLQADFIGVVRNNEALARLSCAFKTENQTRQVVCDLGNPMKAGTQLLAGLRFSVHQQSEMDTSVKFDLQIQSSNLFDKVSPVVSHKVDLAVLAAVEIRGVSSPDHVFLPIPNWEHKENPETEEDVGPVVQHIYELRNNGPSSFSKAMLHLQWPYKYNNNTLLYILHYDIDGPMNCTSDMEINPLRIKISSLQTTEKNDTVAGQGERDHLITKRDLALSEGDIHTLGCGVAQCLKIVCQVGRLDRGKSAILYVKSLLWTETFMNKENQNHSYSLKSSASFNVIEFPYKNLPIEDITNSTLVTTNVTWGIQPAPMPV
T1 chain 2: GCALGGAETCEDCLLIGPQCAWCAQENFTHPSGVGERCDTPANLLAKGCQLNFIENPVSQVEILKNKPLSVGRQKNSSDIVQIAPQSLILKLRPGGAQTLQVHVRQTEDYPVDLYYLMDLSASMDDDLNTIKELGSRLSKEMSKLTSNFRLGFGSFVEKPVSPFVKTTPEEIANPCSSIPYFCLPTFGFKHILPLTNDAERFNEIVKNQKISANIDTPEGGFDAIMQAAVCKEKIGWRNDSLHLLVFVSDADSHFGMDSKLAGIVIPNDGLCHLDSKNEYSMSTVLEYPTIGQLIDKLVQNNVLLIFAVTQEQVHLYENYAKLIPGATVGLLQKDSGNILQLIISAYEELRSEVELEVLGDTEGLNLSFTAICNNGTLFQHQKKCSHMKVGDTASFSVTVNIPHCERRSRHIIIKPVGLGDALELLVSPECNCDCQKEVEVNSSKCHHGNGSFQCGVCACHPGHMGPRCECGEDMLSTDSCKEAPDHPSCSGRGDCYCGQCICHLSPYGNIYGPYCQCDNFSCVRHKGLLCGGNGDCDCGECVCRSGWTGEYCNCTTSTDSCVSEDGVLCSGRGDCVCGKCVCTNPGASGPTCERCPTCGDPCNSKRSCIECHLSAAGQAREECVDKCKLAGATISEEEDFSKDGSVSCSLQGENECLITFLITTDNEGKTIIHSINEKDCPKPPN
Assay: competition
[ ]: non-standard residue; d: D form. N‑Me‑Lys‑pentyne = N-methyl-lysine carrying a pentyne (alkyne) group; NMeK = CN[C@@H](CCCCN)C(=O)O
Threshold check on IC50: strictly below 100 nM is criterion met; on or above 100 nM is criterion not met.

Field: example entries. Status: answers known.
- binder: "cyclo(RGDL[dP]PAH) (SMILES CC(C)C[C@@H]1NC(=O)[C@H](CC(=O)O)NC(=O)CNC(=O)[C@H](CCCNC(=N)N)NC(=O)[C@H](Cc2c[nH]cn2)NC(=O)[C@H](C)NC(=O)[C@@H]2CCCN2C(=O)[C@H]2CCCN2C1=O) [Compound 5]"
  classAssignment: "criterion not met"
- binder: "cyclo(RGDL[dP][NMeK]GL) (SMILES CC(C)C[C@@H]1NC(=O)CNC(=O)[C@H](CCCCN)N(C)C(=O)[C@H]2CCCN2C(=O)[C@H](CC(C)C)NC(=O)[C@H](CC(=O)O)NC(=O)CNC(=O)[C@H](CCCNC(=N)N)NC1=O) [Compound 8]"
  classAssignment: "criterion not met"
- binder: "cyclo(RGDL[dP][NMeK](Ac)GL) [Compound 9]"
  classAssignment: "criterion not met"
- binder: "cyclo(RGDL[dP]PAY) (SMILES CC(C)C[C@@H]1NC(=O)[C@H](CC(=O)O)NC(=O)CNC(=O)[C@H](CCCNC(=N)N)NC(=O)[C@H](Cc2ccc(O)cc2)NC(=O)[C@H](C)NC(=O)[C@@H]2CCCN2C(=O)[C@H]2CCCN2C1=O) [Compound 4]"
  classAssignment: "criterion not met"
- binder: "cyclo(RGDL[dP]PAL) (SMILES CC(C)C[C@@H]1NC(=O)[C@H](C)NC(=O)[C@@H]2CCCN2C(=O)[C@H]2CCCN2C(=O)[C@H](CC(C)C)NC(=O)[C@H](CC(=O)O)NC(=O)CNC(=O)[C@H](CCCNC(=N)N)NC1=O) [Compound 7]"
  classAssignment: "criterion met"

Lab note: next binder to report on.
Query: Field: below-cutoff. Rule: recorded IC50 strictly less than 100 nM. Subject: cyclo(RGDL[dP][N‑Me‑Lys‑pentyne]GL) [Compound 11 (Table 1)]
Reply: criterion met
